Where these numbers come from: PubChem BioAssay

Measured z-score, listed per entry for reference.
assay-overview: inhibitors of hydroxyurea-induced Chk1 phosphorylation, primary screen, imaging, HeLa, phospho-Chk1 antibody, percent positive cells (AID 1186)
assay-conditions: hydroxyurea-induced phospho-Chk1 immunofluorescence imaging, higher = more signal
measured-quantity: z-score

>>> df
                                   compound  measured_quantity  measured
0  C=C(CC1([C@@H](NP(=O)(c2ccccc2)c2ccccc2)[C@H]2C[C@@H]2CCCC)CC1)c1ccccc1            z-score     0.779
1  C=CCN1C(=O)[C@]2(O[C@H](CCn3cc([C@H](O)c4ccccc4)nn3)[C@@H]([Si](C)(C)c3ccc(OC)cc3)[C@@H]2C)c2cc(N3CCC3=O)ccc21            z-score    -0.318
2  O=C1NC(=O)C2C1C=CC(C(O)c1cccs1)N2Nc1ccc(Cl)cc1Cl (stereo not drawn)            z-score    -0.266
3  CN(C)C(=O)[C@@]1(CCS(=O)(=O)c2ccccc2)COC(c2ccc(OCCCO)cc2)=N1            z-score   -0.0692
4  COc1ccc(CCNC(=O)[C@@]2(Sc3ccc(C)cc3)CC(=O)N(C(C)C)[C@@H]2c2ccc(CO)cc2I)cc1            z-score     0.332
5  O=C1C[C@@](C(=O)NCCN2CCOCC2)(c2ccc([N+](=O)[O-])cc2)[C@@H](c2ccc(CO)cc2I)N1CC12CC3CC(CC(C3)C1)C2            z-score    -0.894
6  [N-]=[N+]=NCc1ccccc1C[C@]1(C(N)=O)COC(c2ccc(OCCCO)cc2)=N1            z-score    -0.913
7  C=C(CCCC)/C(=C/C[C@@H](OC(=O)c1ccncc1)c1ccc(OCCO)cc1)c1cc(C(=O)OC)ccc1OC            z-score    -0.377
